- target.under.test: L-lactate dehydrogenase (Plasmodium falciparum (isolate CDC / Honduras))
- experiment.summary: PfLDH activity inhibition – cell lysate, 3D7 strain, counter-screen for P. falciparum growth inhibition project (AID 2304);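 further: 0% = vehicle and 100% = reference inhibitor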
- assay.setup: P. falciparum 3D7 crude extract, LDH APAD/NBT absorbance; at 2 µM; stronger effect = higher value
Record form. Attribute: inhibition. Fill in for each entry.
The figure you give is taken to be in %; do not add the unit.

-- ask For Nc1ncc(-c2cccc(CCN3CCOCC3)c2)cc1-c1nc2ccc(Br)cc2[nH]1 , what is its reported inhibition?
-- reply 4

-- ask For c1ccc2c(NCCCCCCCCCNc3ccnc4ccccc34)ccnc2c1 , what is its reported inhibition?
-- reply -3

-- ask For CN1CCCN(Cc2ccc(-c3cccc(NC(=O)c4cccc(F)c4)c3)cc2)CC1 , what is its reported inhibition?
-- reply -3

-- ask For Cc1ccc(C(=O)Cn2nc(-c3ccc(C)c(S(=O)(=O)N4CCCC4)c3)ccc2=O)cc1 , what is its reported inhibition?
-- reply -3

-- ask For FC(F)(F)c1ccc2nc(-c3ccc(-c4cccc(CN5CCN(CCN6CCOCC6)CC5)c4)cc3)[nH]c2c1 , what is its reported inhibition?
-- reply -6

-- ask For c1cc(CN2CCN(CCN3CCOCC3)CC2)cc(-c2cccc(-c3nc4ccccc4[nH]3)c2)c1 , what is its reported inhibition?
-- reply -2

-- ask For CC(C)c1ccc(NC(=O)c2ccc(NCCCN(C)Cc3ccccc3)c([N+](=O)[O-])c2)cc1 , what is its reported inhibition?
-- reply -2

-- ask For COc1ccc(Cl)c(CC2c3cc(O)c(Cl)cc3CCN2C)c1 (centres undefined) , what is its reported inhibition?
-- reply -1

-- ask For COc1cc2nc(-c3ccccc3)nc(N3CCN(C(=O)c4ccco4)CC3)c2cc1OC , what is its reported inhibition?
-- reply 7

All figures here come from PubChem BioAssay.
